Data provenance is patent US12060368B2.

biological target: MMP 2 (Homo sapiens); construct: recombinant human MMP-1-10, 12, 13 and 14 catalytic domains; purchased Biornol, USA; experiment: MMP Inhibitor Fluorimetric Profiling kit, MMP 2; format: biochemical; conditions: test compound 20 μM
Sequence (P08253 110-446 limits assumed): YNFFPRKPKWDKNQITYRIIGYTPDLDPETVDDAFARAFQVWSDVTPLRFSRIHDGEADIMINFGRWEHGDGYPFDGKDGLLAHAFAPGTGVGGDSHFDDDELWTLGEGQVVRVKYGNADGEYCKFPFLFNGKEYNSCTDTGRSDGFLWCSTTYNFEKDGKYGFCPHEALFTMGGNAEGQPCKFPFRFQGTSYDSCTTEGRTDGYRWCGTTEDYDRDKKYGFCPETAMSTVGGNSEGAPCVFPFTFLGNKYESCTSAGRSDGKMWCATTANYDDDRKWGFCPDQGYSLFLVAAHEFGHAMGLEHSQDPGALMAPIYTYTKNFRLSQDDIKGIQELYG
Where a name gives a salt, the structure may show the parent alone.
RECORDED METRIC: inhibition at 20 µM

Report inhibition at 20 µM for O=C(NO)c1cc2ccc3c(Br)c(CN4CCNCC4)[se]c3c2oc1=O [Compound I-2, hydrochloride] please. 98%

Report inhibition at 20 µM for O=C(NO)c1cc2ccc3c(Br)c(CCN4CCNCC4)[se]c3c2oc1=O [Compound I-3, hydrochloride] please. 100%

Report inhibition at 20 µM for O=C(NO)c1cc2ccc3c(Br)c(CN4CCCNCC4)[se]c3c2oc1=O [Compound I-4, hydrochloride] please. 99%

Report inhibition at 20 µM for CN1CCN(Cc2[se]c3c(ccc4cc(C(=O)NO)c(=O)oc43)c2Br)CC1 [Compound I-1, hydrochloride] please. 51%
